experiment: NCI Yeast Anticancer Drug Screen. Data for the mlh1 rad18 strain (AID 175); conditions: S. cerevisiae mlh1 rad18 strain growth inhibition; at 5.0 µM (retest, dose inferred, filed as 0.5); stronger effect = higher value
This is part of a sample that, as a whole, favours compounds with a hit. Of some 79,000 tested, about 15% had one in any assay.
Listed here: items and their measured growth inhibition.
measure: growth inhibition (%)

compound=COc1cc(OC)c(OC)cc1/C=C\c1nccc2ccccc12 measure="growth inhibition" endpoint_result=-3
compound="OC(c1cc(-c2ccc(Cl)cc2Cl)nc2ccccc12)C1CCCCN1 (centres undefined)" measure="growth inhibition" endpoint_result=-6
compound=O=S(=O)(Nc1ccccc1C(F)(F)F)c1ccc(F)cc1 measure="growth inhibition" endpoint_result=-13
compound=CC(C)N(C(=O)CC1(O)CCCCC1)C(C)C measure="growth inhibition" endpoint_result=0
compound="CNC(C)C(=O)c1ccc2ccc3ccccc3c2c1 (centres undefined)" measure="growth inhibition" endpoint_result=-6
compound="CCS(=O)(=O)C(C(O)C(O)C(O)C(O)CO)S(=O)(=O)CC (centres undefined)" measure="growth inhibition" endpoint_result=-4
compound=O=S(=O)(c1cc(Cl)c(Cl)cc1Cl)N(CCCCCN(S(=O)(=O)c1cc(Cl)c(Cl)cc1Cl)S(=O)(=O)c1cc(Cl)c(Cl)cc1Cl)S(=O)(=O)c1cc(Cl)c(Cl)cc1Cl measure="growth inhibition" endpoint_result=-29
compound=C#CC(CC)(CC)NC(=O)NC(C)(C)C measure="growth inhibition" endpoint_result=-21
compound=CC(C)=CCc1ccc(O)cc1 measure="growth inhibition" endpoint_result=1
compound=Nc1cc2c(cc1/C=C(\C(=O)O)c1ccccc1)OCO2 measure="growth inhibition" endpoint_result=-3
compound=O=C(NN=C1CCCCC1)c1ccc([N+](=O)[O-])cc1 measure="growth inhibition" endpoint_result=4
compound=COC(=O)C1=C(C)NC(C)=C(C(=O)OC)C1c1ccc(/[N+]([O-])=C/c2ccccc2)cc1 measure="growth inhibition" endpoint_result=-7
compound=C/C(=N/O)c1ccc2c(c1)C(=NO)c1cc(/C(C)=N/O)ccc1-2 measure="growth inhibition" endpoint_result=1
compound=O=C1c2cccc(NCCNCCO)c2C(=O)c2cccc(NCCNCCO)c21 measure="growth inhibition" endpoint_result=8
compound=Cc1ccc(N=Nc2ncccc2O)cc1C measure="growth inhibition" endpoint_result=-121
compound=CC(C)OC1=C(Cl)C(=O)c2c(cccc2[N+](=O)[O-])C1=O measure="growth inhibition" endpoint_result=41
compound=CN=c1sc2c(n1C)C(=O)c1ccccc1C2=O measure="growth inhibition" endpoint_result=23
compound=Cn1ncc2c(Nc3ccccc3)nc(Nc3ccccc3)nc21 measure="growth inhibition" endpoint_result=5
compound=Clc1c2ccccc2cc2cccnc12 measure="growth inhibition" endpoint_result=17
compound=COc1ccc2ccc(/C=C/[N+](=O)[O-])cc2c1OC measure="growth inhibition" endpoint_result=37
compound=O=[N+]([O-])c1ccc(/C=N/NC2=CS(=O)(=O)C=C2)cc1 measure="growth inhibition" endpoint_result=-4
compound="CCN(CCN1C(=O)C2CCCCC2C1=O)c1ccc(N=O)c(C)c1 (centres undefined)" measure="growth inhibition" endpoint_result=72
compound=CCOc1ccc2c(c1)[n+]([O-])c(-c1ccccc1)c(N)[n+]2[O-] measure="growth inhibition" endpoint_result=66
compound=CCOC(=O)C(=Cc1cccnc1C)C(=O)OCC measure="growth inhibition" endpoint_result=-8
compound="Cc1nnc(NS(=O)(=O)c2ccc(N=Nc3cc(N=Nc4ccc(S(=O)(=O)Nc5nnc(C)s5)cc4)c4c(NC(=O)C(Cl)Cl)cccc4c3OC(=O)C(Cl)Cl)cc2)s1 (tested in a mixture with another compound)" measure="growth inhibition" endpoint_result=80
compound="OC(CCl)c1ccc2ccc3c(c2c1)Nc1ccccc1S3 (centres undefined)" measure="growth inhibition" endpoint_result=-1
compound=COc1cc2c(Cc3ccc(OC)c(OC)c3)[n+](Cc3ccccc3)ccc2cc1NCc1ccccc1 measure="growth inhibition" endpoint_result=88
compound="COc1ccc(N2C(=O)C(=O)C(C(C)=O)C2=O)cc1 (centres undefined)" measure="growth inhibition" endpoint_result=-8
compound=Cc1ccccc1Sc1ncnc2ccccc12 measure="growth inhibition" endpoint_result=-7
compound=O=[N+]([O-])c1ccc(Sc2ccc([N+](=O)[O-])o2)cc1 measure="growth inhibition" endpoint_result=97
compound="OCCCC(Sc1ccccc1)c1ccccc1 (centres undefined)" measure="growth inhibition" endpoint_result=28
compound=O=C1C=CC(=O)C(c2ccc(Cl)cc2)=C1 measure="growth inhibition" endpoint_result=32
compound=CC(C)CCSc1ncnc2nc[nH]c12 measure="growth inhibition" endpoint_result=-1
compound=CCCCCSc1nc2ncnc(N)c2[nH]1 measure="growth inhibition" endpoint_result=0
compound="CCCCN(CCCC)CC(O)c1cc(-c2ccc(Cl)cc2)nc2cc(C)ccc12 (centres undefined)" measure="growth inhibition" endpoint_result=33
compound="OCC(O)Cc1c(Cl)c(Cl)c(Oc2c(Cl)c(Cl)c(CC(O)CO)c(Cl)c2Cl)c(Cl)c1Cl (centres undefined)" measure="growth inhibition" endpoint_result=-1
compound=N#CC1(C#N)C(C#N)(C#N)C12CCCCCC2 measure="growth inhibition" endpoint_result=52
compound="COc1ccc(C2NCc3c(sc4c3CCCC4)-n3cccc32)cc1 (centres undefined)" measure="growth inhibition" endpoint_result=-7
compound="C=CC[C@]1(C(C)Cc2ccc(OC)c(OC)c2)C[C@@H](OC)C=CC1=O (some centres undefined)" measure="growth inhibition" endpoint_result=-1

###

assay: NCI Yeast Anticancer Drug Screen. Data for the mec2-1 strain (AID 157); settings: S. cerevisiae mec2-1 strain, at 5.0 µM (retest, dose inferred, filed as 0.5)
The panel holds about 79,000 compounds, 15% with a hit somewhere; the sample as a whole holds those more often. Active and inactive are the calls of the source. Cut-off read from the data, not from the text of the source: active = growth inhibition above about 70%; inactive = the rest.
Classes used: active, inactive

molecular_string=Clc1c2ccccc2cc2cccnc12 class=inactive
molecular_string=CC(CO)(CO)N=Cc1cc(I)cc(I)c1O class=active
molecular_string=CCOc1ccc2nc([NH-])sc2c1.CCOc1ccc2nc([NH-])sc2c1.[Cl][Pt+2][Cl] class=inactive

###

assay: NCI Yeast Anticancer Drug Screen. Data for the bub3 strain (AID 167); settings: S. cerevisiae bub3 mutant strain, at 50.0 µM (retest, dose inferred, filed as 5.0), stronger effect = higher value
The panel holds about 79,000 compounds, 15% with a hit somewhere; the sample as a whole holds those more often.
measure: growth inhibition (%)

molecule=O=Nc1c2n[nH]c1CCCCCCCCC2 endpoint_result=99
molecule="COC(=O)C1=C(C(=O)OC)C2C(C)=CC(C)=CN2C(C(=O)OC)=C1C(=O)OC (stereo not given)" endpoint_result=-3
molecule=O=C(Cc1ccccc1)c1ccccc1C(=O)NNc1ccccc1 endpoint_result=96
molecule=COc1ccc(C(c2ccccc2C(=O)O)c2ccc(OC)c3ccccc23)c2ccccc12 endpoint_result=95
molecule="O=S1(=O)CCc2ccccc2C(Br)C1Br (stereo not given)" endpoint_result=99

###

assay: NCI Yeast Anticancer Drug Screen. Data for the sgs1 mgt1 strain (AID 161);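 note: 0% = growth of cultures given vehicle only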; details: S. cerevisiae sgs1 mgt1 strain, at 50.0 µM (retest, dose inferred, filed as 5.0), stronger effect = higher value
The panel holds about 79,000 compounds, 15% with a hit somewhere; the sample as a whole holds those more often.
Cut-off 70% on growth inhibition, inclusive. At or above means true (1); below means false (0).

compound=COc1cccc(/C=N/NC(=O)c2c(-c3ccccc3)noc2C)c1O class="true (1)"
compound=C(=C\c1cccc2ccccc12)/c1ccncc1 class="true (1)"
compound=N#CSCCl class="false (0)"
compound="N#CC1C(=O)NC(=O)C(C#N)C1c1c(Cl)cccc1Cl (stereo not drawn)" class="true (1)"
compound=NC(=S)n1nc(-c2ccccc2)c(N=Nc2ccccc2Cl)c1-c1ccccc1 class="true (1)"
compound="OC(CCl)c1ccc2ccc3c(c2c1)Nc1ccccc1S3 (stereo not drawn)" class="true (1)"
compound=COc1c([N+](=O)[O-])cc(-c2ccccc2)cc1[N+](=O)[O-] class="true (1)"
compound=O=C(CCC1OCCO1)Nc1cc(NCc2ccccc2)ccc1OCc1ccccc1 class="true (1)"
compound="COc1cc(C2C(Cl)C(=O)N2NC(=O)c2ccccc2O)cc(OC)c1OC (stereo not drawn)" class="true (1)"
compound=O=C1c2ccccc2-c2nc3ncccc3cc21 class="true (1)"
compound=O=C(Cc1csc2[n+]1C(=O)/C(=C/c1cccc([N+](=O)[O-])c1)S2)Nc1ccccc1 class="false (0)"
compound="CCOC(=O)CC(O)(CCc1ccccc1)c1ccccc1 (stereo not drawn)" class="false (0)"
compound=CCCCN(CCCC)C(=O)c1ccc(OC(=O)OCC)c(OC)c1 class="false (0)"
compound="CCOP(=O)(OCC)OC1c2[nH]ccc2-c2cc(C(=O)OC)[nH]c2C1OC (stereo not drawn)" class="false (0)"
compound=O=C(O)CCC(c1ccccc1)(c1ccccc1)c1ccccc1 class="true (1)"
compound=CN(c1ccc(C(N)=O)cc1)c1c(O)c2ccccc2[nH]c1=O class="false (0)"
compound=Cc1cc(S(=O)(=O)Nc2n[nH]c(-c3ccccn3)n2)c(S)cc1Cl class="true (1)"
compound=C=C1OC(=O)C(=O)N1CC(=O)O class="false (0)"
compound=COc1ccc2nc3cccc([N+](=O)[O-])c3c(NCCN(C)C)c2c1 class="true (1)"
compound="C1=C(c2ccccc2)C(c2ccccc2)C(c2ccccc2)C/C1=N/OCCN1CCCC1 (stereo not drawn)" class="true (1)"
compound=Cc1ccc(SCc2ccc(Cl)cc2Cl)nn1 class="true (1)"
compound=N#C/C(=C\c1ccc(Cl)cc1Cl)C(N)=S class="true (1)"
compound=CN(C)CCCN1c2ccc3ccccc3c2Sc2cccc(Cl)c21 class="true (1)"
compound="O=C(NCCCN1CC2CCCC2C1)C(C1CCCCC1)C1CCCCC1 (stereo not drawn)" class="true (1)"
compound="CC(=O)NC(CCC(=O)O)C(=O)O.[NH-]C1CCCCC1[NH-].[Pt+2] (stereo not drawn)" class="true (1)"
compound="O=C1OC(c2ccc3c(c2)OCO3)Sc2ccccc21 (stereo not drawn)" class="false (0)"
compound=O=C1Oc2ccccc2C(=O)/C1=C/N1C(=O)/C(=C/c2ccc3c(c2)OCO3)SC1=S class="false (0)"
compound=FC(F)(F)c1cccc(Nc2ccc3cnc4ccccc4c3c2)c1 class="true (1)"
compound=COC(=O)c1nnn(-c2cccc(C(F)(F)F)c2)c1C(=O)c1ccc(Cl)c(Cl)c1 class="true (1)"
compound="Clc1ccc2c(NC3CCC(N4CCCCC4)CC3)ccnc2c1 (stereo not drawn)" class="true (1)"
compound="ClC1c2ccccc2Cc2cccnc21 (stereo not drawn)" class="false (0)"
compound=BrCc1ccc([Si](c2ccccc2)(c2ccccc2)c2ccc(CBr)cc2)cc1 class="false (0)"
compound=Cn1cnc([N+](=O)[O-])c1S class="false (0)"
